Value source: patent US12582598B2

experiment: Approximate solubility of Zileuton in various solvents/vehicles; format: physicochemical; details: Diethylene glycol monoethyl ether, 25 °C, organic solvent or mixture, vehicle Diethylene glycol monoethyl ether
measurement_kind: solubility

Need solubility of CC(c1cc2ccccc2s1)N(O)C(N)=O (racemic) [Zileuton] , thanks.
> 200 mg/mL

====

test: Approximate solubility of Zileuton in various solvents/vehicles; format: physicochemical; conditions: Water, 25 °C, vehicle Water
measurement_kind: solubility

Which solubility reading was recorded for the compound CC(c1cc2ccccc2s1)N(O)C(N)=O (racemic) ?
< 5000 µg/mL

====

test: Approximate solubility of Zileuton in various solvents/vehicles; assay type: physicochemical; conditions: White vaseline, 70 °C, oil or lipid, vehicle White vaseline
measurement_kind: solubility

Returns the measured solubility for the input compound. Input: CC(c1cc2ccccc2s1)N(O)C(N)=O (racemic)
< 5000 µg/mL

====

test: Approximate solubility of Zileuton in various solvents/vehicles; type: physicochemical; conditions: Polyethylene glycol 3350, 70 °C, organic solvent or mixture, vehicle Polyethylene glycol 3350, 70° C.
measurement_kind: solubility

Can you look up the measured solubility of CC(c1cc2ccccc2s1)N(O)C(N)=O (racemic) for me?
25 to 50 mg/mL

====

test: Approximate solubility of Zileuton in various solvents/vehicles; format: physicochemical; settings: Oleic acid, 25 °C, oil or lipid, vehicle Oleic acid
measurement_kind: solubility

Quick check: solubility of CC(c1cc2ccccc2s1)N(O)C(N)=O (racemic) ?
< 5000 µg/mL

====

assay: Approximate solubility of Zileuton in various solvents/vehicles; assay type: physicochemical; details: Liquid paraffin, 25 °C, oil or lipid, vehicle Liquid paraffin
measurement_kind: solubility

Fill in: solubility of CC(c1cc2ccccc2s1)N(O)C(N)=O (racemic) [Zileuton] is ___
< 5000 µg/mL

====

Test: Approximate solubility of Zileuton in various solvents/vehicles
Assay type: physicochemical
Settings: 20% Poloxamer 188 in water, 25 °C, aqueous with cosolvent or surfactant or cyclodextrin, vehicle 20% Poloxamer 188 water
Description: Solubility of Zileuton in Various Solvents Approximately solubility of the Zileuton was measured in different vehicles. Semi-soild and waxy solid excipients were melted and tested at 50° C. or 70° C.
measurement_kind: solubility

Given the molecule CC(c1cc2ccccc2s1)N(O)C(N)=O (racemic) [Zileuton] , what is its reported solubility?
< 5 mg/mL

====

test: Approximate solubility of Zileuton in various solvents/vehicles; type: physicochemical; conditions: Hexylene glycol, 25 °C, organic solvent or mixture, vehicle Hexylene glycol
measurement_kind: solubility

# solubility lookup, item CC(c1cc2ccccc2s1)N(O)C(N)=O (racemic)
25 to 50 mg/mL

====

assay: Approximate solubility of Zileuton in various solvents/vehicles; assay type: physicochemical; settings: Propylene glycol, 25 °C, organic solvent or mixture, vehicle Propylene glycol
measurement_kind: solubility

Need solubility, item CC(c1cc2ccccc2s1)N(O)C(N)=O (racemic)
40 to 66.7 mg/mL

====

assay: Approximate solubility of Zileuton in various solvents/vehicles; type: physicochemical; conditions: Peceol, 25 °C, oil or lipid, vehicle Peceol
measurement_kind: solubility

Looking for the measured solubility of CC(c1cc2ccccc2s1)N(O)C(N)=O (racemic) , can you help?
< 5000 µg/mL

====

test: Approximate solubility of Zileuton in various solvents/vehicles; type: physicochemical; conditions: Polyoxy ethylene sorbitan monooleate, 25 °C, organic solvent or mixture, vehicle Polyoxy ethylene sorbitan monooleate
measurement_kind: solubility

Given the compound CC(c1cc2ccccc2s1)N(O)C(N)=O (racemic) [Zileuton] , what is its reported solubility?
12.5 to 14.3 mg/mL

====

Experiment: Approximate solubility of Zileuton in various solvents/vehicles
Format: physicochemical
Conditions: Medium chain triglycerides, 25 °C, oil or lipid, vehicle Medium chain triglycerides
Procedure: Solubility of Zileuton in Various Solvents Approximately solubility of the Zileuton was measured in different vehicles. Semi-soild and waxy solid excipients were melted and tested at 50° C. or 70° C.
measurement_kind: solubility

Bench note: what solubility did CC(c1cc2ccccc2s1)N(O)C(N)=O (racemic) [Zileuton] show?
< 5000 µg/mL

====

assay: Approximate solubility of Zileuton in various solvents/vehicles; assay type: physicochemical; settings: Paraffin, 70 °C, oil or lipid, vehicle Paraffin
measurement_kind: solubility

Reported solubility, compound CC(c1cc2ccccc2s1)N(O)C(N)=O (racemic) : ____
< 5000 µg/mL

====

assay: Approximate solubility of Zileuton in various solvents/vehicles; type: physicochemical; settings: Glyceryl monolinoleate, 25 °C, oil or lipid, vehicle Glyceryl monolinoleate
measurement_kind: solubility

Recorded solubility for CC(c1cc2ccccc2s1)N(O)C(N)=O (racemic) [Zileuton] , please?
< 5000 µg/mL

====

test: Approximate solubility of Zileuton in various solvents/vehicles; assay type: physicochemical; conditions: 25 °C, pH 4, aqueous with cosolvent or surfactant or cyclodextrin, vehicle 20% Sulfobutylether-β-cyclodextrin in pH 4 sodium citrate buffer
measurement_kind: solubility

// lookup solubility for CC(c1cc2ccccc2s1)N(O)C(N)=O (racemic) [Zileuton]
5000 to 10000 µg/mL

====

experiment: Approximate solubility of Zileuton in various solvents/vehicles; assay type: physicochemical; settings: Olive oil, 25 °C, oil or lipid, vehicle Olive oil
measurement_kind: solubility

Request the reported solubility associated with CC(c1cc2ccccc2s1)N(O)C(N)=O (racemic)
< 5000 µg/mL

====

assay: Approximate solubility of Zileuton in various solvents/vehicles; format: physicochemical; conditions: 20% Sulfobutylether-β-cyclodextrin in water, 25 °C, aqueous with cosolvent or surfactant or cyclodextrin, vehicle 20% Sulfobutylether-β-cyclodextrin in water
measurement_kind: solubility

Which solubility value belongs to CC(c1cc2ccccc2s1)N(O)C(N)=O (racemic) ?
10 to 16.7 mg/mL

====

assay: Approximate solubility of Zileuton in various solvents/vehicles; assay type: physicochemical; conditions: Caprylic glycerides, 50 °C, oil or lipid, vehicle Caprylic glycerides
measurement_kind: solubility

Can you look up the measured solubility of CC(c1cc2ccccc2s1)N(O)C(N)=O (racemic) for me?
18.2 to 28.6 mg/mL

====

assay: Approximate solubility of Zileuton in various solvents/vehicles; format: physicochemical; settings: 25 mM sodium citrate buffer, 25 °C, pH 4, aqueous buffer, vehicle 25 mM sodium citrate buffer solution (pH = 4)
measurement_kind: solubility

Tell me the measured solubility of CC(c1cc2ccccc2s1)N(O)C(N)=O (racemic) [Zileuton] , please.
< 5000 µg/mL

====

assay: Approximate solubility of Zileuton in various solvents/vehicles; assay type: physicochemical; conditions: Polyethylene glycol 6000, 70 °C, organic solvent or mixture, vehicle Polyethylene glycol 6000, 70° C.
measurement_kind: solubility

What measured solubility goes with CC(c1cc2ccccc2s1)N(O)C(N)=O (racemic) [Zileuton] ?
25 to 50 mg/mL

====

Test: Approximate solubility of Zileuton in various solvents/vehicles
Assay type: physicochemical
Conditions: Beeswax polyethylene glycol-8, 70 °C, oil or lipid, vehicle Beeswax polyethylene glycol-8, 70° C.
Procedure: Solubility of Zileuton in Various Solvents Approximately solubility of the Zileuton was measured in different vehicles. Semi-soild and waxy solid excipients were melted and tested at 50° C. or 70° C.
measurement_kind: solubility

Value lookup for solubility; key = CC(c1cc2ccccc2s1)N(O)C(N)=O (racemic)
15.7 to 25 mg/mL

====

assay: Approximate solubility of Zileuton in various solvents/vehicles; assay type: physicochemical; conditions: Triethanolamine, 25 °C, organic solvent or mixture, vehicle Triethanolamine
measurement_kind: solubility

Fill blank: measured solubility of the compound CC(c1cc2ccccc2s1)N(O)C(N)=O (racemic) is ____.
< 10 mg/mL

====

test: Approximate solubility of Zileuton in various solvents/vehicles; type: physicochemical; conditions: Sorbitane monooleate, 25 °C, oil or lipid, vehicle Sorbitane monooleate
measurement_kind: solubility

For the molecule shown here, CC(c1cc2ccccc2s1)N(O)C(N)=O (racemic) , give the reported solubility.
< 5000 µg/mL

====

test: Approximate solubility of Zileuton in various solvents/vehicles; assay type: physicochemical; settings: Ethanol, 25 °C, organic solvent or mixture, vehicle Ethanol
measurement_kind: solubility

Return reported solubility; argument: CC(c1cc2ccccc2s1)N(O)C(N)=O (racemic) [Zileuton]
40 to 50 mg/mL

====

assay: Approximate solubility of Zileuton in various solvents/vehicles; assay type: physicochemical; settings: Ethyl oleate, 25 °C, oil or lipid, vehicle Ethyl oleate
measurement_kind: solubility

Name the reported solubility value associated with the molecule CC(c1cc2ccccc2s1)N(O)C(N)=O (racemic)
< 5000 µg/mL

====

experiment: Approximate solubility of Zileuton in various solvents/vehicles; format: physicochemical; conditions: Ethylene glycol palmitostearate, 70 °C, oil or lipid, vehicle Ethylene glycol palmitostearate
measurement_kind: solubility

Please look up its solubility: CC(c1cc2ccccc2s1)N(O)C(N)=O (racemic)
50 to 100 mg/mL

====

test: Approximate solubility of Zileuton in various solvents/vehicles; assay type: physicochemical; settings: Polyethylene glycol 1500, 70 °C, organic solvent or mixture, vehicle Polyethylene glycol 1500, 70° C.
measurement_kind: solubility

Which solubility is reported for this compound? CC(c1cc2ccccc2s1)N(O)C(N)=O (racemic) [Zileuton]
50 to 100 mg/mL

====

assay: Approximate solubility of Zileuton in various solvents/vehicles; type: physicochemical; settings: White wax, 70 °C, oil or lipid, vehicle White wax
measurement_kind: solubility

Quick one: solubility for CC(c1cc2ccccc2s1)N(O)C(N)=O (racemic) ?
< 5000 µg/mL
